Overview of reported AIRE transcriptional activation functional score across a group of variants:
B1: library; numbered along this chain (parent)
chain: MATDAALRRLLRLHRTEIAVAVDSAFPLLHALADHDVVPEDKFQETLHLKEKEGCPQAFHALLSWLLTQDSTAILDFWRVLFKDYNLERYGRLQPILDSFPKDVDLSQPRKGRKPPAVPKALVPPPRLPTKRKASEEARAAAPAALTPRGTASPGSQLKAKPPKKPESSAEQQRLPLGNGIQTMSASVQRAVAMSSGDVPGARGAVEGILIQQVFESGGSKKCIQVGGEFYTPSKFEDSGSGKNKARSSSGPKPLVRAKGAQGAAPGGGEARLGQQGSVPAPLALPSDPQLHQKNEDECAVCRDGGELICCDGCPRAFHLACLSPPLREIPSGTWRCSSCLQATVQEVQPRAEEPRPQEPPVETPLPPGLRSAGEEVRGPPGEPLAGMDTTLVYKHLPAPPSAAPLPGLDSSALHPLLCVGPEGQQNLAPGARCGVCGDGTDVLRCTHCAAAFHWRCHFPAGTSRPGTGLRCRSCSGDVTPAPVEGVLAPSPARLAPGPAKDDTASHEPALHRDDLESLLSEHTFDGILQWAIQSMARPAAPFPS

variants of: B1; test: AIRE transcriptional activation functional score (insulin promoter-GFP; nonsense median 0, synonymous median 1) (normalised score); higher = higher AIRE activity (more reporter activation); conditions: with insulin promoter-GFP reporter in HEK293
I'd appreciate a reply containing only the number, no unit.

>  <variant-descriptor>
D312C

>  <reported>
1.09

$$$$
>  <variant-descriptor>
P95H

>  <reported>
0.425

$$$$
>  <variant-descriptor>
G54N

>  <reported>
-1.62

$$$$
>  <variant-descriptor>
G462Q

>  <reported>
1.03

$$$$
>  <variant-descriptor>
K52D

>  <reported>
0.601

$$$$
>  <variant-descriptor>
H14F

>  <reported>
0.561

$$$$

In plain terms, C223W has a documented AIRE transcriptional activation functional score of -0.0978

In plain terms, A58I has a documented AIRE transcriptional activation functional score of -0.388

In plain terms, A399F has a documented AIRE transcriptional activation functional score of 1.64

In plain terms, A264W has a documented AIRE transcriptional activation functional score of 1.57

In plain terms, D439E has a documented AIRE transcriptional activation functional score of 0.881
